These data points were gathered from patent US10556898B2.

- tested system: GST-tagged human ROCK2 catalytic domain 1-553 (Homo sapiens, UniProt O75116)
- Construct: GST-tagged human ROCK2 catalytic domain 1-553 from Carna Biosciences (Cat #01-110); purchased Carna Biosciences 01-110; host or cells: baculovirus expression system
- Sequence (O75116 1-553): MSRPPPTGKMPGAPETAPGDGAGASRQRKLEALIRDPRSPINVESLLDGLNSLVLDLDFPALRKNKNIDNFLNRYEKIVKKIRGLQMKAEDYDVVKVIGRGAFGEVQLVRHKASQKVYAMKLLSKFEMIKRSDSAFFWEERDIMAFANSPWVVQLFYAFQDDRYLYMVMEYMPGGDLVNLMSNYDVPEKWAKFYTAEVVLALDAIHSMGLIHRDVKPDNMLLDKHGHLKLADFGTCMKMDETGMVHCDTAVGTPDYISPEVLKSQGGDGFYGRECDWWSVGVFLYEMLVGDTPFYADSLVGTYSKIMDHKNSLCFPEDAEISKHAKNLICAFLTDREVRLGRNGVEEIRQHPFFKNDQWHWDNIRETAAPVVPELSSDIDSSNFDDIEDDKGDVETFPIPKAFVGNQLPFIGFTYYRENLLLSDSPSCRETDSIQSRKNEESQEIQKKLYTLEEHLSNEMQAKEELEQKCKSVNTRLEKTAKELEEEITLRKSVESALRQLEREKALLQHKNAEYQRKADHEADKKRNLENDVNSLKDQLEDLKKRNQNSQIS
- protocol summary: Isolated Enzyme Assay, ROCK2 (LANCE Ultra ULight-CREBtide FRET)
- Format: biochemical
- condition summary: isolated enzyme assay; 30 μM highest concentration tested; read-out: Results from Isolated Enzyme Assay IC50 (μM) ROCK2
Overview of reported IC50 across a group of molecules:

For orientation, consider the following solved cases.
1. Cc1cc(-c2nc(C)co2)cc(-c2nsc(Nc3ccc4[nH]ncc4c3Cl)n2)n1 [IV-105]    > 30 µM
2. C[C@@H]1CN(c2cccc(-c3nsc(Nc4ccc5[nH]ncc5c4Cl)n3)c2)C(=O)O1 [IV-31]    < 1 µM
3. Cc1cc(C(=O)Nc2cncc(-c3nsc(Nc4ccc5[nH]ncc5c4Cl)n3)c2)n(C)n1 [IV-42]    > 30 µM
4. Cc1cc(NC(=O)c2cnco2)cc(-c2nsc(Nc3ccc4[nH]ncc4c3Cl)n2)n1 [IV-25]    < 1 µM

Please examine the following record next.
// query IC50 value for entry CNC(=O)c1cc(-c2nsc(Nc3ccc4[nH]ncc4c3Cl)n2)ccc1F [IV-49]
< 1 µM
